Experiment: in vitro
Conditions: human, hela cells, % viability
quantity-name: viability at 28.5 h, 10 µM (%)
Numbers only, in %.

• Cc1[nH]c2ccc(C(=O)N(Cc3ccccc3)C3CC3)cc2c1C = 89.1

Dear reader, for each entry below, please note its viability at 28.5 h, 10 µM.
1. O=[N+]([O-])c1ccccc1S(=O)(=O)N1CCN(S(=O)(=O)Cc2ccccc2)CC1
2. COc1ccc(C(=O)Nc2nc(OC)cnc2-c2ccsc2)cc1
3. O=C1CC(N2CCC(c3nc4ccccc4s3)CC2)C(=O)N1Cc1ccccc1 (stereo not drawn)
4. O=C(CSc1nc(-c2ccco2)cc(C(F)(F)F)n1)NCc1ccco1
5. COc1ccc(C)cc1NC(=O)CCN1CCN(C)CC1
6. CCOC(=O)CSc1nc2ccccc2nc1C(F)(F)F
7. COc1ccc2[nH]cc(CCNC(=O)N3CCCC(C(=O)O)C3)c2c1 (stereo not drawn)

Response line:
96.9
81.4
90
95.1
102
92.8
108

Prompt line: What viability at 28.5 h, 10 µM value was documented for this compound, CC(C)(C)OC(=O)N1CCC[C@H]1C(=O)c1cccnc1 ?
Response line: 99.3

---

Experiment: in vitro
Details: human, hela cells, % viability
Simple rule here: viability at 28.5 h, 10 µM less than 90% is T, otherwise F.

Prompt line: Quick check: viability at 28.5 h, 10 µM of Cc1cc(Cl)cc(Cl)c1S(=O)(=O)Nc1nc2c(s1)C(=O)CC(C)(C)C2 under 90%?
Response line: F

Prompt line: Quick check: viability at 28.5 h, 10 µM of Cc1cc(NC(=O)c2cc(Cl)ccc2[N+](=O)[O-])nc2c1c(=O)oc1ccccc12 under 90%?
Response line: T

---

Consider the following compounds; for each one, report its viability at 28.5 h, 10 µM.
Assay: in vitro
Conditions: human, hela cells, % viability

- COc1ccc(C(=O)c2c[nH]c3ccccc23)cc1: 88.9%
- CCOc1cc(C2CC(=O)NC(SCC(=O)Nc3cccc(C(F)(F)F)c3)=C2C#N)ccc1O (centres unmarked): 104%
- O=C(CSc1nc2ccccc2s1)OCc1ccc([N+](=O)[O-])cc1: 91.1%

Dear reader, for each entry below, please note its viability at 28.5 h, 10 µM.
1. CNC(=O)Oc1cc(C)c(SC)c(C)c1
2. CC(C)(CNC(=O)Cn1cc(C(=O)NC2CCCCC2)ccc1=O)c1ccccc1F
3. COc1ccc(C(=O)OC(C)(C)C)c(-c2cncc(NCc3ccco3)n2)c1
4. CCn1c2cc(C)sc2c2cnn(Cc3cccnc3)c(=O)c21
5. CCC(Cn1ccnc1)NS(=O)(=O)c1cc(-n2cccn2)ccc1OC (centres unmarked)
6. CC1CCN(CC(O)c2ccc3c(c2)CCN3C(=O)C2CC2)CC1 (centres unmarked)

Response line:
1. 77.2%
2. 89%
3. 87.8%
4. 86.6%
5. 87.8%
6. 102%

---

Consider the following compounds; for each one, report its viability at 28.5 h, 10 µM.
Test: in vitro
Conditions: human, hela cells, % viability
Answers are plain numbers, in %.

- COc1cc(CN2CCN(Cc3ccco3)CC2)cc(OC)c1OC [CBK074520G]: 88.2
- CCCc1ccc(S(=O)(=O)N(c2ccccc2)C2CCNCC2)cc1 [CBK165121T]: 108

With those in mind, consider the next compound.
Prompt line: What viability at 28.5 h, 10 µM value was documented for this compound, CCN(Cc1ccc(C#N)cc1F)C(=O)C(NC(=O)OC)C(C)C (stereo not drawn) ?
Response line: 86.2

---

Assay: in vitro
Conditions: human, hela cells, % viability
quantity-name: viability at 28.5 h, 10 µM (%)
Answers are plain numbers, in %.

• C=C1C2(C(=O)N3CCC(Oc4cccnc4)CC3)CCC(C2)C1(C)C (stereo not drawn) = 107

Dear reader, for each entry below, please note its viability at 28.5 h, 10 µM.
1. CC(C)C1C2CCCCC2=NN1C(=O)/C=C/C(=O)O (stereo not drawn)
2. C[C@]12CN(Cc3ccccc3)C[C@H]1NC(=O)c1ccccc1C2O (stereo partly drawn)
3. O=C(O)c1ccc(OCCN2C3=NCCN3c3ccccc32)cc1
4. O=S(=O)(O)c1cc(O)c2c(S(=O)(=O)O)cc(S(=O)(=O)O)cc2c1 [CBK278164N]
5. COc1ccc(Cc2n[nH]c(=O)n2-c2ccccc2)cc1

Response line:
93.1
112
93
94.9
107

Dear reader, for each entry below, please note its viability at 28.5 h, 10 µM.
1. COc1ccc(C(=O)C(OC(=O)c2cc(O)nc3ccccc23)c2ccccc2)cc1 (stereo not drawn)
2. CCn1c(CN2CCCC2c2nc(N(C)C)ncc2-c2ccc(F)cc2)nc2ccccc21 (stereo not drawn)
3. Cc1[nH]c(=O)[nH]c(=O)c1S(=O)(=O)Nc1ccc(S(N)(=O)=O)cc1
4. CCOC(=O)C1=C(Nc2ccc([N+](=O)[O-])cc2)S/C(=C\c2ccc(O)c(OC)c2)C1=O
5. OC12CCCON1OC(c1ccccc1)C2 (stereo not drawn)
6. CC(C)N1CCCC(CNC(=O)c2cc(C3CCCCC3)no2)C1 (stereo not drawn)
7. COc1cc2c(cc1OC)CN(/C=N/c1sc3c(c1C#N)CC(C)(C)NC3(C)C)CC2
8. O=C(Nc1cccc(-c2nc3ncccc3o2)c1)c1ccc(OCc2ccccc2)cc1

Response line:
1. 97.1
2. 94.9
3. 91.7
4. 89.3
5. 111
6. 97.2
7. 105
8. 102

Dear reader, for each entry below, please note its viability at 28.5 h, 10 µM.
1. CSCCN(C)C(=O)c1nnn(Cc2ccc(F)cc2F)c1C
2. COc1ccc(NC2c3cccc4cccc(c34)C2NS(=O)(=O)c2ccccc2)cc1 (stereo not drawn)
3. CC(NS(=O)(=O)c1ccc(CCC(=O)N2CCN(C)CC2)cc1)c1ccccc1 (stereo not drawn)
4. O=C(O)CCC(=O)Nc1ccc(NC(=O)C2CCCCC2)c(Cl)c1
5. CN1CCN(S(=O)(=O)c2ccc3c4c(cccc24)C(=O)N3)CC1

Response line:
1: 93.2; 2: 97.4; 3: 91.7; 4: 89.3; 5: 111

Dear reader, for each entry below, please note its viability at 28.5 h, 10 µM.
1. O=C(N/N=C\c1cccc2ccccc12)c1ccc(CO)nc1
2. COc1ccc(CN2CCC(Cc3ccccc3-c3cccc(F)c3)(C(N)=O)CC2)cc1
3. CC1CN(S(=O)(=O)c2ccc(NC(=O)C3CC(=O)Nc4cc(F)ccc43)cc2)CC(C)O1 (stereo not drawn)
4. O=[N+]([O-])c1ccc(/C=C/c2nn3c(Cn4cnc5ccccc54)nnc3s2)cc1
5. CC(C)Oc1ccccc1-c1nnc(SCC(=O)O)[nH]1
6. CCOCCn1c(N2CC(C)CC(C)C2)nc2c1c(=O)[nH]c(=O)n2C (stereo not drawn)
7. O=C(c1cccnc1)C1CCN(C(=O)Cc2ccsc2)CC1

Response line:
[104, 99.8, 91.4, 104, 81.7, 83.6, 90.7]

Prompt line: What viability at 28.5 h, 10 µM value was documented for this molecule, CS(=O)(=O)N1CCC(C(=O)NC(c2ccccc2)c2cnccn2)CC1 (stereo not drawn) ?
Response line: 105

---

Experiment: in vitro
Details: human, hela cells, % viability
quantity-name: viability at 28.5 h, 10 µM (%)
Numbers only, in %.

Dear reader, for each entry below, please note its viability at 28.5 h, 10 µM.
1. Cc1nc(CN2CCC(C(=O)c3ccc(F)cc3)CC2)cs1
2. Cc1ccc(CC(=O)N2CCC(Cc3ccccc3-c3ccccc3)(C(N)=O)CC2)cc1
3. COc1ccc(N(C(C)C(=O)NN=C2CCN(C)CC2)S(C)(=O)=O)cc1 (stereo not drawn)
4. O=C(CCc1c[nH]c2ccccc12)OCc1nnc(-c2ccccc2)o1
5. CC(Oc1ccccc1)c1nnc(SCC(=O)Nc2cc(Cl)c(Cl)cc2Cl)n1C (stereo not drawn)
6. Cc1nc(C)c(C(=O)c2coc3ccc(O)cc23)o1
7. CCN1CCN(Cc2c(C(C)(C)C)[nH]c3ncccc23)CC1

Response line:
1. 103
2. 110
3. 94.2
4. 101
5. 108
6. 94.1
7. 106

Dear reader, for each entry below, please note its viability at 28.5 h, 10 µM.
1. Cc1ccnc(SCC(N)=O)n1
2. COc1cccc2ncn(CCCn3ccnn3)c(=O)c12
3. O=C(C[C@@H]1CCNC[C@@H]1Cc1cc(CN2CCCCC2)on1)N1CCCCC1
4. CCCc1[nH]nc(O)c1Cc1cccc(C)c1

Response line:
1. 96.1
2. 103
3. 86.8
4. 91.3

Dear reader, for each entry below, please note its viability at 28.5 h, 10 µM.
1. O=C(O)c1cc(-c2cccc(O)c2)nc2ccc(Br)cc12
2. O=C(CN1CCCCCC1=O)Nc1nc(-c2ccccc2F)cs1
3. Cn1cc(CN(Cc2ccccc2)CC2CCCO2)cn1 (stereo not drawn)
4. COc1ccc(-c2ncc(OCc3cccs3)nc2N)c(OC)c1
5. O=C(Nc1ccc(S(=O)(=O)Nc2ncccn2)cc1)c1cc([N+](=O)[O-])ccc1Cl

Response line:
1. 97.9
2. 104
3. 85.1
4. 84
5. 89.9

Dear reader, for each entry below, please note its viability at 28.5 h, 10 µM.
1. O=C1CCN([C@H]2C[C@@H](O)[C@@H](CO)O2)C(=O)N1
2. COc1ccc(-c2cnc(NCC3CC3)c(C(=O)N(C)CCN(C)C)c2)cc1

Response line:
93.8
90.5
